Below, each of the binders is paired with its reported Specific signal at 500 pg/mL value.
Molecular target: T1, recombinant purified FRα (ECL assay calibrator) (human, UniProt P15328 25-234)
T1 construct: Calibrator of the ECL sandwich assays; also called FRα calibrator; FRα standard
T1 sequence (P15328 25-234 limits assumed): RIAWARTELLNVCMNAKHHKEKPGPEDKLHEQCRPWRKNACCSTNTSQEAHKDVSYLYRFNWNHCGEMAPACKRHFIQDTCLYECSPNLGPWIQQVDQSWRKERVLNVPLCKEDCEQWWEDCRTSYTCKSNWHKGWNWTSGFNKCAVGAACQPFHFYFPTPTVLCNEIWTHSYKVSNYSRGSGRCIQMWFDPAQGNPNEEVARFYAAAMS
Assay: ECL sandwich, FRα calibrator; capture 1A8.G11.E7; binder = detection Ab
Response field accepts a number only; no unit should be typed.

As a guide, the following entries are already answered.
Ask: Please indicate Specific signal at 500 pg/mL recorded for Monoclonal antibody 1C6.E12.G8 (antibody, mouse IgG1, V domains shown, Murine IgG1 kappa from hybridoma; also called ATCC PTA-123091) VH: SGARELVKPGASVKLSCKTSGFTFNSSYITWLKQKPGQSLEWIAWIYAGNGGTTYNQKFTGKAQLTVDTSSSTAYMQFSSLTTEDSAIYYCASETYTNYWYFDVWGSGTTVTVSS VL: QSPASLSASVGETVTITCRASGNIHNYLAWYQQKQGKSPQLLVYNAKTLADGVPSRFSGSGSGTQYSLKINSLQPEDFGSYYCQHFWSTPYTFGGGTKLEIK
Reply: 54

Ask: Supply reported Specific signal at 500 pg/mL belonging to this binder: Monoclonal antibody 24H8.D3 (antibody, mouse IgG1, V domains shown, Biotin-conjugated when used as capture antibody in the ECL assay; also called ATCC PTA-123090) VH: QVQLKESGPGLVAPSQSLSITCTVSGFSLTSYGVSWVRQPPGKGLEWLGVIWGDGSTNYHSTLISRLSISKDNSKSQVFLKLNSLQTDDTATYYCAKPHPAATGAMDYWGQGTSVTVSS VL: DIQMTQTTSSLSASLGDRVTISCRASQDISNHLNWYQQKPDGTIKLLIYYTSKLHSGVPSRFSGSGSGTDYSLTISNLEQEDIATYFCQQGNTLWTFGGGTKLEIK
Reply: 71

Ask: Report measured Specific signal at 500 pg/mL; entry is Monoclonal antibody 26A9.C4 (antibody, mouse IgG1, V domains shown, Murine IgG1 kappa from hybridoma; also called ATCC PTA-123092) VH: SGARELVKPGASVKLSCKTSGFTFSSSFISWLKQKPGQSLEWIAWIYGGNGGTSYNQNFTGKAQLTVDTSSSTAYMQFSSLTTEDSAVYYCASETYGNYWYFDVWGAGTTVTVSS VL: QSPASLSASVGDTVTITCRASGNIHNYLAWYQQKQGKSPQLLVYNAKTLADGVPSRFSGSGSGTQYSLKINSLQPEDFGNYYCQHFWSTPYTFGGGTKLEIK
Reply: 62

Further cases:
Ask: Return reported Specific signal at 500 pg/mL. Input binder: Monoclonal antibody 6A2.G7 (antibody, mouse IgG1, V domains shown, Murine IgG1 kappa from hybridoma; also called ATCC PTA-123093) VH: GADLVKPGASVKMSCKASGYTFSRYNMHWVKQTPGQGLEWIGTIYPGNGDTSYNEKFKGKATLTADKSSSIVYMQVSSLTSEASAVYYCARDYGSRYALDYWGQGTSVTVSS VL: SSLSASLGDRVTISCRASQDISNYLNWYQQKPDGTVKLLIYYTSRLHSGVPSRFSGSGSGTDYSLTISNLEQEDIATYFCQQGNTLPYTFGGGTKLEIK
Reply: 6000

Ask: Supply Specific signal at 500 pg/mL value. Item: Monoclonal antibody 1D2.D8.G10 (antibody, mouse IgG1, V domains shown, Murine IgG1 kappa from hybridoma; also called 1D2.D8.G0; ATCC PTA-123098) VH: QSGTVLARPGASVKMSCKASGYSFTSNWMHWIKQRPGQGLEWIGAIYPGNSDTSYNQKFKGKAKLTAVTSASTAYMELSSLTNEDSAVYHCTRGDGSSFWYFDVWGAGTTVTVSS VL: QSPASLVVSLGQRATISCRASKSVSTSGYSYMYWYQQKSGQPPKLLIYLASNLESGVPARFSGGGSGTDFTLNIHPVEEEDAATYYCQQSRELPPTFGGGTKLEIK
Reply: 57

Ask: Give the reported Specific signal at 500 pg/mL for this binder. Monoclonal antibody 1A8.G11.E7 (antibody, mouse IgG1, V domains shown, Murine IgG1 kappa from hybridoma; also called ATCC PTA-123100) VH: ESGPGLVAPSQSLSITCTVSGFSLTSYGVSWVRQPPGKGLEWLGVIWGDGSTNYHSTLISRLSISKDNSKSQVFLKLNSLQTDDTATYYCAKPHPAATGAMDYWGQGTSVTVSS VL: TQTTSSLSASLGDRVTISCRASQDISNHLNWYQQKPDGTVKLLIYYTSRLHSGVPSRFSGSGSGTDYSLTISNLEQEDIATYFCQQGNTLWTFGGGTKLEIK
Reply: 67

Ask: Determine from records and report Specific signal at 500 pg/mL for Monoclonal antibody 24H8.F3 (antibody, mouse IgG1, V domains shown, Murine IgG1 kappa from hybridoma; also called ATCC PTA-123097) VH: GPGLVAPSQSLSITCTVSGFSLTSYGVSWVRQPPGKGLEWLGVIWGDGSTNYHSTLISRLSISKDNSKSQVFLKLNSLQTDDTATYYCAKPHPAATGAMDYWGQGTSVTVSS VL: TTSSLSASLGDRVTISCRASQDISNHLNWYQQKPDGTIKLLIYYTSKLHSGVPSRFSGSGSGTDYSLTISNLEQEDIATYFCQQGNTLWTFGGGTKLEIK
Reply: 139

Ask: Specify reported Specific signal at 500 pg/mL for the binder shown: Monoclonal antibody 19D4.B7 (antibody, mouse IgG2a, V domains shown, SULFO-TAG conjugated when used as detection antibody in the ECL assay; also called ATCC PTA-11884) VH: GARELVKPGASVKLSCTASGFNIKHPYMHWVKQRPDQGLEWIGRIDPANGNTKYDPKFQGKATITADTSSNTAYLQLSSLTSEDTAVYYCGREEVADYTMDYWGQGTSVTVSS VL: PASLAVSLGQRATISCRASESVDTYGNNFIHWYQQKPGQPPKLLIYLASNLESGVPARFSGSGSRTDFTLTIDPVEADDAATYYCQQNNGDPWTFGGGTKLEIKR
Reply: 58700
